Each recorded value in this set is attributed to the supplement of paper PMC7125110.

Below, each of the variants is paired with its reported self-cleavage kobs at 640 uM GlcN6P value.
B1: glmS ribozyme (parent)
chain: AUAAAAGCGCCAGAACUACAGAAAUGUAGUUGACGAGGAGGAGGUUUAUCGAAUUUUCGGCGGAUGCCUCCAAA

Variants of: B1
Measurement description: self-cleavage kobs at 640 uM GlcN6P; higher = faster cleavage; RNA array
Cond: with glucosamine-6-phosphate
Fewer inactive variants are shown than the library holds.
Recorded endpoint: self-cleavage kobs at 640 uM GlcN6P (s⁻¹)

# Mutant name, Qualifier symbol, Number
measured = [
    ("A12U C58U C61G G62C A64G U65A G66U C67G U69C C70U", "=", "7.34e-05"),
    ("G35U U46G", "<", "1e-05"),
    ("C11A G13A A39G", "<", "1e-05"),
    ("C10U C16A U65A", "<", "1e-05"),
    ("U56G C70G", "=", "8.21e-05"),
]
